Attribution: paper PMC10250233

target: CST (CTC1-STN1-TEN1) (human, UniProt Q2NKJ3;Q9H668;Q86WV5 1-1217;1-368;1-123); assay: fluorescence anisotropy; 200 mM LiCl; FA: 200 mM NaCl, KCl or LiCl, 20 mM HEPES pH 7.4, 1 mM DTT, 22-25 C, 375 or 750 pM oligo, Kd,app +/- SEM; EMSA: 20 mM HEPES pH 7.4, 200 mM KCl, 1 nM 32P oligo; conditions: protein: recombinant; tags: 2xFLAG N-term on CTC1; 6xHis N-term on STN1 and TEN1; copies: 1;1;1; label: 5' fluorescein; parallel G4 in KCl (predominantly unimolecular); linear in LiCl
Sequence (Q2NKJ3 whole entry, chain 1 of 3): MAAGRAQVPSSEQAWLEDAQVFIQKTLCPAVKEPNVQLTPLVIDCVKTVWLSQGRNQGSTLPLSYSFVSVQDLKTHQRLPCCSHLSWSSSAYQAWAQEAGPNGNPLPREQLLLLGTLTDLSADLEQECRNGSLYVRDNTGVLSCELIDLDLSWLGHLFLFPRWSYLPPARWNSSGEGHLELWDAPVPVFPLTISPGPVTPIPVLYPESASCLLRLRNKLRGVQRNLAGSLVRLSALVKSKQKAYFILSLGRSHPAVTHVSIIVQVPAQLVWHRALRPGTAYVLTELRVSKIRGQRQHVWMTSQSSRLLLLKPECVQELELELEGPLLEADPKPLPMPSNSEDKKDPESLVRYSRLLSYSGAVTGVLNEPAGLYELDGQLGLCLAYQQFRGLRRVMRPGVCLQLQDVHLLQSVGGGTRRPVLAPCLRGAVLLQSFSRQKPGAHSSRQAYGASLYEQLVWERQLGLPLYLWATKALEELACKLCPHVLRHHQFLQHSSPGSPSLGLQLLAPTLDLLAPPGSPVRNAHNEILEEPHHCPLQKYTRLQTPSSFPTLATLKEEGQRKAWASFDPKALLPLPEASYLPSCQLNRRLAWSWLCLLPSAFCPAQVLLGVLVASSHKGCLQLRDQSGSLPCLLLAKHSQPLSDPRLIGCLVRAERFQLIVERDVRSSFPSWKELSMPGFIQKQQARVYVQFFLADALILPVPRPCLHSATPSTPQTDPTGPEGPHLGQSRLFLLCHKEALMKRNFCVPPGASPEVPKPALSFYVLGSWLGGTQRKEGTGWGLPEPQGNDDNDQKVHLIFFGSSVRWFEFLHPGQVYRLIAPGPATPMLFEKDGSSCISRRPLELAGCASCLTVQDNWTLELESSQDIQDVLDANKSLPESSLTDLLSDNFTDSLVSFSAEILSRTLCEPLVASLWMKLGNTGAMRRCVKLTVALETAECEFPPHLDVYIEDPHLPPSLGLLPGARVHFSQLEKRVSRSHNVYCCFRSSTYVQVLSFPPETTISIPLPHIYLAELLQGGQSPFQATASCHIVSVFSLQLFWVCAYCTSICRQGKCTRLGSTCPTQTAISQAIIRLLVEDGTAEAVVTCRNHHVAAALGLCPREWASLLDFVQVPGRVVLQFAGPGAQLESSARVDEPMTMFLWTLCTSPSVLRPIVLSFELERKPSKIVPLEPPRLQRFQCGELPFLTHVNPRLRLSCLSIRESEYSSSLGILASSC
Sequence (Q9H668 whole entry, chain 2 of 3): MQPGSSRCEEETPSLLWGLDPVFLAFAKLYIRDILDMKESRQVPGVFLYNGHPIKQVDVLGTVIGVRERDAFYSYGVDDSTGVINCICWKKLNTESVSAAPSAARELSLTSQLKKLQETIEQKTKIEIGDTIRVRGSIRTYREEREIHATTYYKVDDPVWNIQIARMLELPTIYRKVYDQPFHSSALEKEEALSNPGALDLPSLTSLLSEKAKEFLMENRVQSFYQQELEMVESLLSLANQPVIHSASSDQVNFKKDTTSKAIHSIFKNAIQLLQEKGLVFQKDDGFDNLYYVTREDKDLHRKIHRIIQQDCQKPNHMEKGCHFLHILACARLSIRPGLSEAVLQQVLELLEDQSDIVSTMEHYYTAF
Sequence (Q86WV5 whole entry, chain 3 of 3): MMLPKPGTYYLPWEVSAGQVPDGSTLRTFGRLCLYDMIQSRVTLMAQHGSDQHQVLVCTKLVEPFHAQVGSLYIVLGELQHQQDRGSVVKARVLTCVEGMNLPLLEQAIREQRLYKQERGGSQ
OBSERVATION_TYPE: pKd
Scale note: pKd = -log10(concentration in M).

CGGGGCGGGCCTTGGGCGGGGT (structured_DNA) [2M27] has a reported pKd of 7.97
